Measured AC50, listed per entry for reference.
- EXPERIMENTAL SYSTEM: Beta-2 adrenergic receptor (Homo sapiens); also: assay procedure not described here
- Sequence (P07550 whole entry): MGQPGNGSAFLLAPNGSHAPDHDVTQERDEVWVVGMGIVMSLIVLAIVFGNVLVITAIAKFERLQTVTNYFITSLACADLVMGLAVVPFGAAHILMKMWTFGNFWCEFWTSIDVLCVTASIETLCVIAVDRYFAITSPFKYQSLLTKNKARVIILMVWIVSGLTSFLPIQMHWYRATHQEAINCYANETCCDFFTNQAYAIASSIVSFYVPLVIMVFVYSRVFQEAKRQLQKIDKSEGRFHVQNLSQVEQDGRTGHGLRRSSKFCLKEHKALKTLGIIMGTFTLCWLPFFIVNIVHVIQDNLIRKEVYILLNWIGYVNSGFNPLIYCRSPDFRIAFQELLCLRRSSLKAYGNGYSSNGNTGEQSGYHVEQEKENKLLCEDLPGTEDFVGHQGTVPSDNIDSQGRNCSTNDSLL
- Assay type: functional, cell-based

MOLECULE	AC50
CN(C)C(=O)OC1N=C(c2ccccc2)c2cc(Cl)ccc2N(C)C1=O (centres undefined)	> 30 µM
CCCC(=O)N1CCCN(c2nc(N)c3cc(OC)c(OC)cc3n2)CC1	> 30 µM
CN(CCCN1c2ccccc2CCc2ccccc21)CC(=O)c1ccc(Cl)cc1	> 30 µM
C[C@H]1C[C@@H]2[C@H]([C@@H](O)C[C@@]3(C)[C@H]2CC[C@]3(O)C(=O)COC(=O)CCC(=O)O)[C@@]2(C)C=CC(=O)C=C12 [METHYLPREDNISOLONE HEMISUCCINATE]	> 30 µM
